experiment: The inhibitory activity of compound against MraY or MurG at 6.25 ug/mL; No Inhibition
The source made the active and inactive calls. The rule behind the calls is not given here.

| COMPOUND | Inhibitory activity |
| --- | --- |
| COc1ccc(Cn2c(=O)ccn([C@@H]3OC([C@H](O)[C@H](NCCCNC(=O)[C@H](N)C(O)C(C)C)C(=O)OC(C)(C)C)[C@@H](O[Si](C)(C)C(C)(C)C)[C@H]3O[Si](C)(C)C(C)(C)C)c2=O)cc1 (stereo not given in full) | inactive |
| COc1ccc(Cn2c(=O)ccn([C@@H]3OC([C@H](O)[C@H](NCCCNC(=O)[C@H](N)CCc4ccccc4)C(=O)OC(C)(C)C)[C@@H](O[Si](C)(C)C(C)(C)C)[C@H]3O[Si](C)(C)C(C)(C)C)c2=O)cc1 (stereo not given in full) | inactive |
| COc1ccc(Cn2c(=O)ccn([C@@H]3OC([C@H](O)[C@H](NCCCNC(=O)[C@@H](C)N)C(=O)OC(C)(C)C)[C@@H](O[Si](C)(C)C(C)(C)C)[C@H]3O[Si](C)(C)C(C)(C)C)c2=O)cc1 (stereo not given in full) | inactive |
| COc1ccc(Cn2c(=O)ccn([C@@H]3OC([C@H](O)[C@H](NCCCNC(=O)[C@H](N)CCC(=O)OC(C)(C)C)C(=O)OC(C)(C)C)[C@@H](O[Si](C)(C)C(C)(C)C)[C@H]3O[Si](C)(C)C(C)(C)C)c2=O)cc1 (stereo not given in full) | inactive |
| COc1ccc(Cn2c(=O)ccn([C@@H]3OC([C@@H](O)[C@H](NCCCNC(=O)[C@H](N)C(O)C(C)C)C(=O)OC(C)(C)C)[C@@H](O[Si](C)(C)C(C)(C)C)[C@H]3O[Si](C)(C)C(C)(C)C)c2=O)cc1 (stereo not given in full) | inactive |
| COc1ccc(Cn2c(=O)ccn([C@@H]3OC([C@H](O)[C@H](NCCCNC(=O)[C@H](N)CC(C)C)C(=O)OC(C)(C)C)[C@@H](O[Si](C)(C)C(C)(C)C)[C@H]3O[Si](C)(C)C(C)(C)C)c2=O)cc1 (stereo not given in full) | inactive |
| CC(C)C(O)[C@@H](N)C(=O)NCCCN[C@H](C(=O)OC(C)(C)C)[C@@H](O)C1O[C@@H](n2ccc(=O)[nH]c2=O)[C@H](O[Si](C)(C)C(C)(C)C)[C@@H]1O[Si](C)(C)C(C)(C)C (stereo not given in full) | inactive |
| COc1ccc(Cn2c(=O)ccn([C@@H]3OC([C@H](O)[C@H](NCCCNC(=O)[C@H](N)CC(=O)OCc4ccccc4)C(=O)OC(C)(C)C)[C@@H](O[Si](C)(C)C(C)(C)C)[C@H]3O[Si](C)(C)C(C)(C)C)c2=O)cc1 (stereo not given in full) | inactive |
| COc1ccc(Cn2c(=O)ccn([C@@H]3OC([C@H](O)[C@H](NCCCNC(=O)[C@H](N)CCCCNC(=O)OCc4ccccc4)C(=O)OC(C)(C)C)[C@@H](O[Si](C)(C)C(C)(C)C)[C@H]3O[Si](C)(C)C(C)(C)C)c2=O)cc1 (stereo not given in full) | inactive |
| COc1ccc(Cn2c(=O)ccn([C@@H]3OC([C@H](O)[C@H](NCCCNC(=O)[C@@H](CC(C)C)NC(=O)[C@H](CCCN=C(N)N)NC(=O)N[C@H](C(=O)O)C(C)C)C(=O)O)[C@@H](O)[C@H]3O)c2=O)cc1 (stereo not given in full) | inactive |

Sourced from ChEMBL document CHEMBL1145867
